# Test system: primary rat microglia
# CONDITION_INFO: rat
Counter-ions that a name gives are not always drawn.
Let's look at some compounds and their measured LPS % cell toxicity.
Report as a plain number; the unit % is understood.

Completed entries (count: 5):
COMPOUND: O=C(O)c1cc(/N=N/c2ccc(S(=O)(=O)Nc3ccccn3)cc2)ccc1O
STUDY_TARGET: primary rat microglia
READOUT_UNITS: %
LPS % cell toxicity: 0
//
COMPOUND: CO[C@H]1/C=C/O[C@@]2(C)Oc3c(C)c(O)c4c(O)c(c5c(nc6cc(C)ccn65)c4c3C2=O)NC(=O)/C(C)=C\C=C\[C@H](C)[C@H](O)[C@@H](C)[C@@H](O)[C@@H](C)[C@H](OC(C)=O)[C@@H]1C
STUDY_TARGET: primary rat microglia
READOUT_UNITS: %
LPS % cell toxicity: 2
//
COMPOUND: CN1C(C(=O)Nc2ccccn2)=C(O)c2sccc2S1(=O)=O
STUDY_TARGET: primary rat microglia
READOUT_UNITS: %
LPS % cell toxicity: 0
//
COMPOUND: CCN1CCC[C@H]1CNC(=O)c1c(OC)ccc(Br)c1OC [Remoxipride]
STUDY_TARGET: primary rat microglia
READOUT_UNITS: %
LPS % cell toxicity: 0
//
COMPOUND: Nc1ccc(/N=N/c2ccccc2)c(N)n1
STUDY_TARGET: primary rat microglia
READOUT_UNITS: %
LPS % cell toxicity: 0

[ask] I have this compound here, N#Cc1ccc(C(c2ccc(C#N)cc2)n2cncn2)cc1 , and I need its recorded LPS % cell toxicity.
[reply] 0

[ask] I have this compound here, OC(CCN1CCCC1)(c1ccccc1)C1CCCCC1 (stereo not drawn) , and I need its recorded LPS % cell toxicity.
[reply] 1

[ask] I have this compound here, CN1CCN(CCCN2c3ccccc3Sc3ccc(C(F)(F)F)cc32)CC1 [Trifluoperazine dihydrochloride, reference compound] , and I need its recorded LPS % cell toxicity.
[reply] 0

[ask] I have this compound here, Nc1ccncc1 , and I need its recorded LPS % cell toxicity.
[reply] 0

----------
# Tested on: primary rat microglia
# CONDITION_INFO: rat
Let's look at some compounds and their measured LPS % cell toxicity.
Report as a plain number; the unit % is understood.

Completed entries (count: 8):
COMPOUND: CC(Cc1cccc(C(F)(F)F)c1)NCCOC(=O)c1ccccc1 (stereo not drawn) [Benfluorex]
STUDY_TARGET: primary rat microglia
LPS % cell toxicity [%]: 0

COMPOUND: C[C@@H](O)[C@H]1C(=O)N2C(C(=O)O)=C(SCCN=CN)C[C@H]12 [Imipenem, reference compound]
STUDY_TARGET: primary rat microglia
LPS % cell toxicity [%]: 0

COMPOUND: CCC1(C)OC(=O)N(C)C1=O (stereo not drawn) [Paramethadione]
STUDY_TARGET: primary rat microglia
LPS % cell toxicity [%]: 0

COMPOUND: C[N+](C)(C)CCCCCCCCCC[N+](C)(C)C [Decamethonium]
STUDY_TARGET: primary rat microglia
LPS % cell toxicity [%]: 0

COMPOUND: C=C1CC[C@H](O)C/C1=C/C=C1\CCC[C@]2(C)[C@@H]([C@H](C)CCCC(C)C)CC[C@@H]12 [Cholecalciferol]
STUDY_TARGET: primary rat microglia
LPS % cell toxicity [%]: 0

COMPOUND: Nc1ccc(C(=O)NCC(=O)O)cc1 [Aminohippuric Acid]
STUDY_TARGET: primary rat microglia
LPS % cell toxicity [%]: 1

COMPOUND: CC(C)(CO)[C@@H](O)C(=O)NCCCO [Dexpanthenol]
STUDY_TARGET: primary rat microglia
LPS % cell toxicity [%]: 0

COMPOUND: CO[C@H]1C[C@@H]2CC[C@@H](C)[C@@](O)(O2)C(=O)C(=O)N2CCCC[C@H]2C(=O)O[C@H]([C@H](C)C[C@@H]2CC[C@@H](O)[C@H](OC)C2)CC(=O)[C@H](C)/C=C(\C)[C@@H](O)[C@@H](OC)C(=O)[C@H](C)C[C@H](C)/C=C/C=C/C=C/1C [Sirolimus]
STUDY_TARGET: primary rat microglia
LPS % cell toxicity [%]: 1

[ask] I have this compound here, CNNCc1ccc(C(=O)NC(C)C)cc1 [Procarbazine] , and I need its recorded LPS % cell toxicity.
[reply] 0

[ask] I have this compound here, Cc1ccc(C(C)C)c(O)c1 [Thymol] , and I need its recorded LPS % cell toxicity.
[reply] 0

[ask] I have this compound here, O=C1C(O)=C([C@H]2CC[C@H](c3ccc(Cl)cc3)CC2)C(=O)c2ccccc21 [Atovaquone] , and I need its recorded LPS % cell toxicity.
[reply] 0

[ask] I have this compound here, O=C(O)c1ccccc1 [Benzoic Acid] , and I need its recorded LPS % cell toxicity.
[reply] 0

[ask] I have this compound here, CC1(C)S[C@@H]2[C@H](NC(=O)[C@H](N)c3ccccc3)C(=O)N2[C@H]1C(=O)O [Ampicillin] , and I need its recorded LPS % cell toxicity.
[reply] 0

[ask] I have this compound here, CC(C)(CO)[C@@H](O)C(=O)NCCC(=O)O [Pantothenic Acid] , and I need its recorded LPS % cell toxicity.
[reply] 1

[ask] I have this compound here, CCOC(=O)[C@H](CCc1ccccc1)N[C@H]1CCc2ccccc2N(CC(=O)O)C1=O [Benazepril] , and I need its recorded LPS % cell toxicity.
[reply] 1

[ask] I have this compound here, C=C(NC(=O)C(=C)NC(=O)c1csc(C2=N[C@@H]3c4csc(n4)[C@H]4NC(=O)c5csc(n5)[C@H]([C@](C)(O)[C@@H](C)O)NC(=O)[C@H]5CSC(=N5)/C(=C/C)NC(=O)[C@H]([C@@H](C)O)NC(=O)c5csc(n5)[C@]3(CC2)NC(=O)[C@H](C)NC(=O)C(=C)NC(=O)[C@H](C)NC(=O)[C@H]([C@@H](C)CC)N[C@@H]2C=Cc3c([C@H](C)O)cc(nc3[C@H]2O)C(=O)O[C@@H]4C)n1)C(N)=O [Thiostrepton] , and I need its recorded LPS % cell toxicity.
[reply] 1

[ask] I have this compound here, C#CCN(C)Cc1ccccc1 [Pargyline] , and I need its recorded LPS % cell toxicity.
[reply] 0

[ask] I have this compound here, CCCCCCOc1ccccc1C(N)=O [Exalamide] , and I need its recorded LPS % cell toxicity.
[reply] 0

[ask] I have this compound here, Clc1ccc(C(Cn2ccnc2)OCc2csc3c(Cl)cccc23)c(Cl)c1 (stereo not drawn) [Sertaconazole] , and I need its recorded LPS % cell toxicity.
[reply] 0

[ask] I have this compound here, CC(C)(O)c1ccccc1CC[C@@H](SCC1(CC(=O)O)CC1)c1cccc(/C=C/c2ccc3ccc(Cl)cc3n2)c1 [Montelukast] , and I need its recorded LPS % cell toxicity.
[reply] 0

[ask] I have this compound here, Nc1ccc(S(=O)(=O)Nc2nccs2)cc1 [Sulfathiazole] , and I need its recorded LPS % cell toxicity.
[reply] 0

[ask] I have this compound here, Nc1ccc(S(=O)(=O)Nc2ccccn2)cc1 [Sulfapyridine] , and I need its recorded LPS % cell toxicity.
[reply] 0

[ask] I have this compound here, O=P(O)(O)C(O)(Cn1ccnc1)P(=O)(O)O [Zoledronic acid, reference compound] , and I need its recorded LPS % cell toxicity.
[reply] 1
